Measured melting point of individual entries
Where a name gives a salt, the structure may show the parent alone.
measured_property: melting point

>>> readout_value("COCCOCCOc1cc2nncc(Nc3cc(O)c(C)cc3F)c2cc1OC (as salt: hydrochloride) [Example 23]")
"250 to 256 °C"
>>> readout_value("COc1cc2c(Nc3cc(O)c(Cl)cc3F)cnnc2cc1OCCCN1CCOCC1 (as salt: hydrochloride) [Example 12]")
"218 to 225 °C"
>>> readout_value("COc1cc2c(Nc3cc(O)c(C)cc3F)cnnc2cc1OCc1ccncc1.Cl")
"244 to 252 °C"
>>> readout_value("COc1cc2nncc(Nc3cc(O)c(Cl)cc3F)c2cc1OC (as salt: hydrochloride) [Example 22]")
"255 to 256 °C"
>>> readout_value("COc1cc2nncc(Nc3cc(O)c(C)cc3F)c2cc1OC (as salt: hydrochloride) [Example 21]")
"251 to 253 °C"
>>> readout_value("COc1cc2nncc(Nc3ccc(C)c(O)c3)c2cc1OC [Example 1]")
"240 to 244 °C"
>>> readout_value("COCCOc1cc2nncc(Nc3ccc(Br)cc3F)c2cc1OC (as salt: hydrochloride) [Example 5]")
"278 to 281 °C"
>>> readout_value("COc1cc2c(Nc3cc(O)c(C)cc3F)cnnc2cc1OCc1nccn1C.Cl")
"215 to 221 °C"
>>> readout_value("COc1ccc2c(Nc3ccc(C)c(O)c3)cnnc2c1 (as salt: hydrochloride) [Example 14]")
"270 to 275 °C"
>>> readout_value("COc1cc2c(Nc3cc(OC(C)=O)c(Cl)cc3F)cnnc2cc1OCc1ccccc1 (as salt: hydrochloride) [Example 7]")
"240 to 247 °C"
>>> readout_value("COCCOc1cc2nncc(Oc3cc(O)c(C)cc3F)c2cc1OC [Example 20]")
"267 to 273 °C"
>>> readout_value("COc1cc2c(Nc3cc(O)c(Cl)cc3F)cnnc2cc1OCc1ccncc1 (as salt: hydrochloride) [Example 10]")
"243 to 251 °C"
>>> readout_value("COc1cc2c(Nc3cc(O)c(Cl)cc3F)cnnc2cc1OCCCN1CCCC1 (as salt: hydrochloride) [Example 13]")
"240 to 245 °C"
>>> readout_value("COc1cc2c(Nc3cc(O)c(Cl)cc3F)cnnc2cc1OCc1ccccc1 (as salt: hydrochloride) [Example 6]")
"280 to 284 °C"
>>> readout_value("COCCOc1cc2nncc(Nc3cc(O)c(C)cc3F)c2cc1OC (as salt: hydrochloride) [Example 11]")
"283 to 290 °C"
